- experimental-target: Nitric oxide synthase, inducible (Mus musculus, UniProt P29477)
- Sequence (P29477 whole entry): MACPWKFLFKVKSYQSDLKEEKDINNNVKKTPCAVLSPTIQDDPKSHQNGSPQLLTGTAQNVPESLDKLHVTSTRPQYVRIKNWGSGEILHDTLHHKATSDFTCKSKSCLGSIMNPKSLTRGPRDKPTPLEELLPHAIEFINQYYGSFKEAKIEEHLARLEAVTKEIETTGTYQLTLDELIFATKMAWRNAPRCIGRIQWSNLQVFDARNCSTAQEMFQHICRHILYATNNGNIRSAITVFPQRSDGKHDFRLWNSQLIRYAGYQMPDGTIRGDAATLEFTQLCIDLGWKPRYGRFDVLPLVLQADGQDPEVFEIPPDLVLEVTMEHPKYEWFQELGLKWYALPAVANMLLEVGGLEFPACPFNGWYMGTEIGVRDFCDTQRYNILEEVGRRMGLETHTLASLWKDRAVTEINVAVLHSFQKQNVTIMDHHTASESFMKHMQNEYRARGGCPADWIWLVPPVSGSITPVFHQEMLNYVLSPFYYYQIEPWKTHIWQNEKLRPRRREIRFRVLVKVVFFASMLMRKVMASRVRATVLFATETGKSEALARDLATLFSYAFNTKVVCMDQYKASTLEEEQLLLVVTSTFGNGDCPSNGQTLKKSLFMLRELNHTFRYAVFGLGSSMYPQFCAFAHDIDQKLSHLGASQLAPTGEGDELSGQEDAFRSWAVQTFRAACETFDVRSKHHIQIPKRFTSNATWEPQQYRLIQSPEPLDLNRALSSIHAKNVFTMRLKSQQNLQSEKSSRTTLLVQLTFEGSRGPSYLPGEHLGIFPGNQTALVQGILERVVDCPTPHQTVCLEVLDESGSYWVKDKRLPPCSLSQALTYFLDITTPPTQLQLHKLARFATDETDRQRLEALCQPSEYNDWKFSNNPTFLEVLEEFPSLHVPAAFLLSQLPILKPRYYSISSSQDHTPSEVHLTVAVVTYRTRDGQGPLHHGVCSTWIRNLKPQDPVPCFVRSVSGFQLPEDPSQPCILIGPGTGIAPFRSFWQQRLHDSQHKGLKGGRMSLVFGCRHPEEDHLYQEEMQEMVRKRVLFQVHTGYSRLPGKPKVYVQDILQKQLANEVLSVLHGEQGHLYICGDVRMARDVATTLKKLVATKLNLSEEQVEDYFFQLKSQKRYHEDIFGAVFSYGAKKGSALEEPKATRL
- experiment: Compound was tested for competitive antagonist of Nitric oxide synthase
- Type: functional
metric: Ki (µM)
Answer in µM, number only, no unit symbol.

Incoming: Return reported Ki. Input compound: CC(=N)NCCC[C@H](N)C(=O)O
Outgoing: 1.42
